- target_of_assay: human NPR1 (Homo sapiens, UniProt P16066)
- Construct: host or cells: CHO-K1
- Sequence (P16066 33-1061): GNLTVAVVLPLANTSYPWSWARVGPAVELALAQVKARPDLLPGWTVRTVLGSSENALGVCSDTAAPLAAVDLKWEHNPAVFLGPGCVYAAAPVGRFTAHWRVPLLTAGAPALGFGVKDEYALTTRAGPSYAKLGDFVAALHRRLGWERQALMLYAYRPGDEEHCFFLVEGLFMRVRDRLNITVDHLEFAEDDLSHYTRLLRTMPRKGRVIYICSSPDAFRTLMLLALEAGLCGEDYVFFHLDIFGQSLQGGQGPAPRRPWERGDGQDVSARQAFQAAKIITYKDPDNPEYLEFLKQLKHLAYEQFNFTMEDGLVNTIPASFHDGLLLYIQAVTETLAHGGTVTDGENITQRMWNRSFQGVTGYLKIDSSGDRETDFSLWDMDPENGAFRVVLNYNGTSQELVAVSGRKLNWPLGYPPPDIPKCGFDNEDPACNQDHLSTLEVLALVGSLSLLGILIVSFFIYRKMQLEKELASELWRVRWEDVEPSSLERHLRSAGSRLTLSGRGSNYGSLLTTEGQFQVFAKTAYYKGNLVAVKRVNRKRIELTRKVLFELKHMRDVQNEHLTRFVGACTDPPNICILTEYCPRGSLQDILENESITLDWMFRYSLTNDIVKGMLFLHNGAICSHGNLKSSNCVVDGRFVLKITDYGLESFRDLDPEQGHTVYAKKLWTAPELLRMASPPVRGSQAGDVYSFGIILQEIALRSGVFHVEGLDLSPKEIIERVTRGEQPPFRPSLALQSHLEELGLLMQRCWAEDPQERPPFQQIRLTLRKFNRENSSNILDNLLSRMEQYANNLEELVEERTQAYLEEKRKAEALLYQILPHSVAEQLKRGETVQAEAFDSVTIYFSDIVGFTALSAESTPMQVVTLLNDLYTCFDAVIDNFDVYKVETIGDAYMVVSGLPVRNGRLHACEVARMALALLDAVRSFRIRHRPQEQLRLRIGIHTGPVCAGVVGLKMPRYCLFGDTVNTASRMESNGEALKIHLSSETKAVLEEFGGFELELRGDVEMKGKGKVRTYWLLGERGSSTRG
- measurement_protocol: Cellular cGMP production assay, human NPR1 expressing CHO-K1 cells (CisBio HTRF)
- Format: cell-based
- particulars: maximum cGMP production as percentage of the maximum cGMP produced with ANP
endpoint_label: Human NPR1 Amax (% of ANP)

Please review the entries below; each comes with its answer.
CC[C@@H](N(C)c1nc2c(c(N[C@@H](CN3CCC[C@H](C)C3)c3cnn(C)c3C)n1)C[C@H](c1cccc(F)c1)CC2)C12CC(C(=O)O)(C1)C2 [Compound 46] :: 93.728 % of ANP
CC[C@@H](N(C)c1nc2c(c(N[C@@H](CN3C4CCCC3CC4)c3cnn(CC)c3)n1)C[C@H](c1cccc(F)c1)CC2)C12CC(C(=O)O)(C1)C2 [Compound 42] :: 92.080 % of ANP

Please look at this molecule and report its Human NPR1 Amax (% of ANP): CC[C@@H](Nc1nc2c(c(N[C@@H](CN(C)C)c3ccccc3)n1)C[C@H](c1ccccc1)CC2)[C@H]1CC[C@H](C(=O)O)CC1 [Compound 165]
90.595 % of ANP
